Task for the reader: assign each of the following binders its reported kon.
- Target Desc: T1, recombinant human IGSF8 extracellular domain tagged by a human Fc region (IGSF8-hFc) (human, UniProt Q969P0 28-579, biotin label in Examples 17, 18 and 28 (site not given))
- T1 construct: also called IGSF8-Fc fusion protein; IGSF8-hFc-biotin; not shown: human Fc region
- T1 sequence: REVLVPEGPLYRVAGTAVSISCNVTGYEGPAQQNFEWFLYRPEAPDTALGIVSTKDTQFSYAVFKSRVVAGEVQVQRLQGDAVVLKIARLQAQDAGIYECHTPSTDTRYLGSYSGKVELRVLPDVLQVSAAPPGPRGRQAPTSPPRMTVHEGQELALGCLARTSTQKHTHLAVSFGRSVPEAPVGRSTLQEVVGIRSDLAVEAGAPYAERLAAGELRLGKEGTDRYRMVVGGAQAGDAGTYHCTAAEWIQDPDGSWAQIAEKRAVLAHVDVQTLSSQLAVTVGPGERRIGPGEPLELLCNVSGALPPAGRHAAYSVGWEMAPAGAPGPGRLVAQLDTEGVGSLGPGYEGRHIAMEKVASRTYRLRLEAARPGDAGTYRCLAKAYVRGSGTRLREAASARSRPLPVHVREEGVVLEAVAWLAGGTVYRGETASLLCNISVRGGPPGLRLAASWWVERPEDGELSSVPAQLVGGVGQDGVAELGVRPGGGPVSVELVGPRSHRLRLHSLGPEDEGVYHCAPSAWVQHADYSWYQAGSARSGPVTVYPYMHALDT
- Procedure Text: SPR, Ab captured
Write the number in M⁻¹ s⁻¹ without appending the unit.

Which value of kon has been reported for L2VH-D31S (antibody, V domains shown) VH: EVQLVESGGGLEQPGGSLRLSCAGSGFTFRSYAMTWVRQAPGKGLEWVSSISGSGGNTYYADSVKGRFTISRDNSKNTLYLQMNSLRAEDTAIYYCARGEYSSGWPSWFDPWGQGTLVTVSS VL: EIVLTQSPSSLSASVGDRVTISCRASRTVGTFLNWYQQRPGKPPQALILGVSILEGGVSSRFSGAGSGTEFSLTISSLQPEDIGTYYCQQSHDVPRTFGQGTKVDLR in the records?
12200

How about L1-14 (antibody, V domains shown) VH: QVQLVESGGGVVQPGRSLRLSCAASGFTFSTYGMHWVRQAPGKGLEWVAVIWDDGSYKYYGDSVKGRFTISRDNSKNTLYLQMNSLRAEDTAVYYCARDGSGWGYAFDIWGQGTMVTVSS VL: DIQLTQSPSSLSASVGDRVTITCQASQDISEYLNWYQHKPGKAPNPLVFSQPNLETGVPPRFSATGSGTDFSLTITSLQPEDFATYYCQQYDSFPYTFGQGTRLDIK ?
381000

How about L1-23 (antibody, V domains shown) VH: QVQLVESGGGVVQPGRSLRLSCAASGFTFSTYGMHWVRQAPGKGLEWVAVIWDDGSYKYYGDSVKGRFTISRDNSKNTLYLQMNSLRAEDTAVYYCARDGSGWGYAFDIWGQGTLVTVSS VL: DIQLTQSPSSLSASVGDRVTITCQASQDIGPWLNWYQHKPGKAPKPLVFGSPNLETGVPSRFSASGSGTDFTLTISSLQPEDFATYYCQQYDSFPYTFGQGTKVEIK ?
506000

How about L2VL-G56S (antibody, V domains shown) VH: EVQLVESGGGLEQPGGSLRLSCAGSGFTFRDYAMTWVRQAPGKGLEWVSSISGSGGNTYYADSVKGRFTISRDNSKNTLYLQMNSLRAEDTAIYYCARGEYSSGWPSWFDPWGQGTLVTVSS VL: EIVLTQSPSSLSASVGDRVTISCRASRTVGTFLNWYQQRPGKPPQALILGVSILESGVSSRFSGAGSGTEFSLTISSLQPEDIGTYYCQQSHDVPRTFGQGTKVDLR ?
107000

How about L1VL-V48D (antibody, V domains shown) VH: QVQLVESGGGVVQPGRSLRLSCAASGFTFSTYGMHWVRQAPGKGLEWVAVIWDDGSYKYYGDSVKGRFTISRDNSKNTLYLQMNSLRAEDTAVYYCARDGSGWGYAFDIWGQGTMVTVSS VL: DIQLTQSPSSLSASVGDRVTITCQASQDISEYLNWYQHKPGKAPNPLDFDAANLETGVPPRFSATGSGTDFSLTITSLQPEDFATYYCQQYDSFPYTFGQGTRLDIK ?
32400
